# experimental.system: CDK12 wt/CycK (Homo sapiens, UniProt Q9NYV4)
# Sequence (Q9NYV4 whole entry): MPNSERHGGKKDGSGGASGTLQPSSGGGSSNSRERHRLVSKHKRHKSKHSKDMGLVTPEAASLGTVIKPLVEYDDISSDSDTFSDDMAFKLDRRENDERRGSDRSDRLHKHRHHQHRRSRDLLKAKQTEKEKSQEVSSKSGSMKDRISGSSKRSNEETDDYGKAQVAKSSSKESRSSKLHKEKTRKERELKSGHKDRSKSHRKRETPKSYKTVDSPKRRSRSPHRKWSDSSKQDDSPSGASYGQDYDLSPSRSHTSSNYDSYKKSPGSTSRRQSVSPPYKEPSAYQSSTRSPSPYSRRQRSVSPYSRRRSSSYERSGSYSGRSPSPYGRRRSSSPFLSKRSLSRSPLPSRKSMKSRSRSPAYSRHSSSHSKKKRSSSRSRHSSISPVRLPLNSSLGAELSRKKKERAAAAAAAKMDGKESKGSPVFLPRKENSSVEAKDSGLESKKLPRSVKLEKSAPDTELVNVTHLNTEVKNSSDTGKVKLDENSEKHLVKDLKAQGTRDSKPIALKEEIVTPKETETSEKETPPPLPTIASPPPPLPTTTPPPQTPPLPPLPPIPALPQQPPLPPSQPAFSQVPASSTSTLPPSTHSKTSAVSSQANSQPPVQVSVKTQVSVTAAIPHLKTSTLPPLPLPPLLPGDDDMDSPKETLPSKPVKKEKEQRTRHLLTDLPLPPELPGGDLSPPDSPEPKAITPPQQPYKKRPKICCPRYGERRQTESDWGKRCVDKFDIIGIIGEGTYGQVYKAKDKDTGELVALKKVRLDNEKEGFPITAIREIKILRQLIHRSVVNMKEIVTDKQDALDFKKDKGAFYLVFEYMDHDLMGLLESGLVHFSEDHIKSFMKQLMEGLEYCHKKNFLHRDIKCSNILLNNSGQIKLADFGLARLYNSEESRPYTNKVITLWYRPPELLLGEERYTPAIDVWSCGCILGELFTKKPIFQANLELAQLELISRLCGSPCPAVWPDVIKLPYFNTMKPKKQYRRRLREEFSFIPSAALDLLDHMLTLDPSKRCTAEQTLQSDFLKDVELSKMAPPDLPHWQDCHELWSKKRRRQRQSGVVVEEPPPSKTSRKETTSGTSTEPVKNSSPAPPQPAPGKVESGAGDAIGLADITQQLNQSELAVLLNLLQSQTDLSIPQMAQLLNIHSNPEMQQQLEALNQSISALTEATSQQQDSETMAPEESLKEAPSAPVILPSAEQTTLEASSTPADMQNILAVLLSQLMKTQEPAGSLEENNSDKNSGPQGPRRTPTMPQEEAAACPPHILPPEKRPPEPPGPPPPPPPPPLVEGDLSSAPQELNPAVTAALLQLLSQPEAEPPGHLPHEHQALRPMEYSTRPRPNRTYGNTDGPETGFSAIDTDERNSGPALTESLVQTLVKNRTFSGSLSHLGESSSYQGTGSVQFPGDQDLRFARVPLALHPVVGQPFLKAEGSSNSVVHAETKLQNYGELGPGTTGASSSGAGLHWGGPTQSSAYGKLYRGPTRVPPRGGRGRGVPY
# Sequence (O75909 whole entry partner): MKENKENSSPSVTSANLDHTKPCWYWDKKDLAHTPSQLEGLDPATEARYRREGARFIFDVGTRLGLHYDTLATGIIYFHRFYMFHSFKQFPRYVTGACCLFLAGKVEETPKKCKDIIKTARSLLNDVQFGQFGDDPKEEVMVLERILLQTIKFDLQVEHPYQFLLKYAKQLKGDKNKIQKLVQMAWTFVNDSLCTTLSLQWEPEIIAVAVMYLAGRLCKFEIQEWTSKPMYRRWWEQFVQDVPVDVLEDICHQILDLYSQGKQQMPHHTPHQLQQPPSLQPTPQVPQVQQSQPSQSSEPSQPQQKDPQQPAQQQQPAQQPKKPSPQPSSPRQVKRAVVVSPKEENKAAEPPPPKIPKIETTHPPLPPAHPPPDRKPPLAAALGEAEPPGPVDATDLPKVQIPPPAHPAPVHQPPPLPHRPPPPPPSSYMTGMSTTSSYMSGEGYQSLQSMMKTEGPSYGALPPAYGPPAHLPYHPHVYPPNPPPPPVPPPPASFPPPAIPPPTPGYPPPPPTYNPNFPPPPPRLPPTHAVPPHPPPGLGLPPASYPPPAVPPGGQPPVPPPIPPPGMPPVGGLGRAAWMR
# method.notes: In vitro IC50 profile for CDKs family kinase (33PanQinase radiometric assay)
# conditions.used: CDK7 selectivity profile in CDKs family
assay.readout: IC50

# cpd.smiles, assay.readout, measured.value
rows = [
    ("CC(C)c1cnn2c(NCc3c(Cl)cccc3-n3ccc(C(C)(C)O)n3)nc(N3CCC(N)CC3)nc12", "IC50", "> 10 µM"),
]

====

# experimental.system: CDK2/Cyclin A (Homo sapiens)
# Construct: purchased Invitrogen PV6290
# method.notes: Enzymatic assay for CDK2 (FRET based LANCE Ultra kinase assay)
# Type: biochemical
# conditions.used: read-out: CDK2 enzymatic activity (IC50 range)
pIC50: −log10 of the molar value.
Measured pIC50, listed per entry for reference.

# cpd.smiles, pIC50
measured = [
    ("CC(C)c1cnn2c(NCc3ccccc3-c3ccc4c(c3)NC(=O)C(C)(C)O4)nc(N3CCC(N)CC3)nc12", "6.00 to 7.00"),
    ("CC(C)c1cnn2c(NCc3ccccc3-c3ccc4[nH]cnc4c3)nc(N3CCC(N)CC3)nc12", "6.00 to 7.00"),
    ("CC(C)c1cnn2c(NCc3ccccc3-c3nc4ccccc4n3C)nc(N3CCC(N)CC3)nc12", "< 6.00"),
    ("CCCc1ccc2nn(-c3ccccc3CNc3nc(N4CCC(N)CC4)nc4c(C(C)C)cnn34)cc2c1", "6.00 to 7.00"),
    ("CCC(=O)Nc1cccc(Oc2cccc(CNc3nc(N4CCC(N)CC4)nc4c(C(C)C)cnn34)c2)c1", "6.00 to 7.00"),
    ("CC(C)c1cnn2c(NCc3ccccc3-n3cccn3)nc(-c3cccc(C(=O)N4CCC(N)CC4)c3)nc12", "< 6.00"),
    ("CC(C)c1cnn2c(NCc3cccc(NC(=O)c4cccc(NC(=O)CCCN(C)C)c4)c3)nc(N3CCC(N)CC3)nc12", "6.00 to 7.00"),
    ("CC(C)c1cnn2c(NCc3ccccc3-c3nccc4ccccc34)nc(N3CCC(N)CC3)nc12", "< 6.00"),
    ("CC(C)c1cnn2c(NCc3c(O)cccc3-c3cc4ccccc4[nH]3)nc(N3CCC(N)CC3)nc12", "< 6.00"),
    ("CNC(=O)c1ccc2nn(-c3ccccc3CNc3nc(N4CCC(N)CC4)nc4c(C(C)C)cnn34)cc2c1", "6.00 to 7.00"),
    ("CC(C)c1cnn2c(NCc3ccccc3-n3cc4c(n3)CCNC4=O)nc(N3CCC(N)CC3)nc12", "6.00 to 7.00"),
    ("CC(C)Oc1ccc2cn(-c3ccccc3CNc3nc(N4CCC(N)CC4)nc4c(C(C)C)cnn34)nc2c1", "6.00 to 7.00"),
    ("Cc1cccc(C)c1CNc1nc(N2CCC(N)CC2)nc2c(C(C)C)cnn12", "< 6.00"),
    ("CC(C)c1cnn2c(NCc3c(Cl)cccc3-n3ccc(C(=O)NC4CCNCC4)n3)nc(N3CCC(N)CC3)nc12", "< 6.00"),
    ("CC(C)c1cnn2c(NCc3ccccc3-c3ccc4ccccc4n3)nc(NCC3CCNCC3)nc12", "< 6.00"),
]

====

# experimental.system: CDK5/p25 (Homo sapiens, UniProt Q00535)
# Construct: purchased Invitrogen PR8543B
# Sequence (Q00535 whole entry): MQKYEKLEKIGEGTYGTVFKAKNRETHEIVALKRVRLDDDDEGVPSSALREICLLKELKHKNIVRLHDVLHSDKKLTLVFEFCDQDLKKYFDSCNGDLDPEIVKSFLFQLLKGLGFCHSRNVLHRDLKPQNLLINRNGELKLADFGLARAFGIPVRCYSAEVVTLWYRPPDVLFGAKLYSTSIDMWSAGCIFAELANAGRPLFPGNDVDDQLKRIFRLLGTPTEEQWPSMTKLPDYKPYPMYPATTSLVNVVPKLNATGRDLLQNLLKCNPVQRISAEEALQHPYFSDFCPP
# Sequence (Q15078 99-307 partner limits assumed): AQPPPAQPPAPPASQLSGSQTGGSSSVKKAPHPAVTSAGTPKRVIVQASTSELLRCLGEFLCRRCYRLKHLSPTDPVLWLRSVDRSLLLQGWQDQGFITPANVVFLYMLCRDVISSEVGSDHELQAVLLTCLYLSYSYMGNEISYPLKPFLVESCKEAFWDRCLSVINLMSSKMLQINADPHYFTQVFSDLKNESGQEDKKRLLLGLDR
# method.notes: Enzymatic assay for CDK5 (FRET based LANCE Ultra kinase assay)
# Format: biochemical
# conditions.used: read-out: CDK5 enzymatic activity (IC50 activity range)
pIC50: −log10 of the molar value.
Measured pIC50, listed per entry for reference.

# compound, pIC50
measured = [
    ("Cc1cccc(-c2cc(C(C)(C)O)n(C)n2)c1CNc1nc(N2CCC(N)CC2)nc2c(C(C)C)cnn12", "< 6.00"),
    ("CC(C)c1cnn2c(NCc3c(Cl)cccc3-n3ccc(C(C)(C)O)n3)nc(Nc3cccc4[nH]ccc34)nc12", "< 6.00"),
    ("CC(C)c1cnn2c(NCc3ccccc3-c3ccc4ccccc4n3)nc(N[C@H]3CC[C@@H](O)CC3)nc12", "< 6.00"),
    ("CC(C)c1cnn2c(NCc3ccccc3-c3cc4ccccc4[nH]3)nc(NCC3CNCCO3)nc12 (racemic)", "6.00 to 7.00"),
]

====

Measured IC50, listed per entry for reference.
# experimental.system: CDK5/p25 (Homo sapiens)
# Construct: purchased Invitrogen PR8543B
# method.notes: Enzymatic assay for CDK5 (FRET based LANCE Ultra kinase assay)
# Type: biochemical
# conditions.used: read-out: CDK5 enzymatic activity (IC50 range)
# Experimental: Enzymatic Binding Assay Protocol for CDK1, CDK2, CDK5 and CDK7 Inhibition activity of the respective compound on CDK kinase under Km value of ATP was tested in FRET based The LANCE® Ultra kinase assay (Perkin Elmer), which uses a ULight™-labeled peptide substrate and an appropriate Europium-labeled anti-phospho-antibody. […] Data was analyzed using XL Fit software.
assay.readout: IC50

# cpd.smiles, experimental.system, assay.readout, measured.value
measured = [
    ("CC(C)c1cnn2c(NCc3ccccc3-c3nccc4cc(NC(=O)CCCN(C)C)ccc34)nc(N3CCC(N)CC3)nc12", "CDK5/p25 (Homo sapiens)", "IC50", "> 1000 nM"),
    ("CC(C)CC(=O)Nc1cccc2cc(-c3ccccc3CNc3nc(N4CCC(N)CC4)nc4c(C(C)C)cnn34)[nH]c12", "CDK5/p25 (Homo sapiens)", "IC50", "< 100 nM"),
    ("CC(C)c1cnn2c(NCc3cccc(Oc4ccc(F)c(NC(=O)CCCN(C)C)c4)c3)nc(N3CCC(N)CC3)nc12", "CDK5/p25 (Homo sapiens)", "IC50", "100 to 1000 nM"),
    ("CC(C)c1cnn2c(NCc3ccccc3-n3cccn3)nc(N3CCC(O)CC3)nc12", "CDK5/p25 (Homo sapiens)", "IC50", "100 to 1000 nM"),
]

====

# experimental.system: CDK7/Cyclin H/MNAT1 (Homo sapiens)
# Construct: purchased Invitrogen PR6749B
# Sequence (P50613 whole entry): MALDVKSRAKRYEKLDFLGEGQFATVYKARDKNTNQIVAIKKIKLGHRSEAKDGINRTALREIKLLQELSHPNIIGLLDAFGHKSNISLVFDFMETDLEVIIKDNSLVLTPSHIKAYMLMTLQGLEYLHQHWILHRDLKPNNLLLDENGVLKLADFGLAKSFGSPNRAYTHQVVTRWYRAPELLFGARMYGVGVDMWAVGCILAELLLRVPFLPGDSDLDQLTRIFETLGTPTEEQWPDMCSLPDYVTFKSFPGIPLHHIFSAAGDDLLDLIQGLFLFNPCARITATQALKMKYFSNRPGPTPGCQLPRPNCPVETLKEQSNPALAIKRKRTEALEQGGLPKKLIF
# Sequence (P51946 whole entry partner): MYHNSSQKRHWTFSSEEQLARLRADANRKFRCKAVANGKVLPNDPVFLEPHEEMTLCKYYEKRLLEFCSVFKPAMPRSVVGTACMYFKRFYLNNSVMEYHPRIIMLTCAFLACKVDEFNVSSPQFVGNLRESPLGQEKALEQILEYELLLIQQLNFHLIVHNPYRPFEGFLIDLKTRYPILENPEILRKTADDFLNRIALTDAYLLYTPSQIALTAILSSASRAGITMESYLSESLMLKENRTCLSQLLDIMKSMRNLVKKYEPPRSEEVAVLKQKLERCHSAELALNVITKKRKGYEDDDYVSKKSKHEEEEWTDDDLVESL
# Sequence (P51948 whole entry partner): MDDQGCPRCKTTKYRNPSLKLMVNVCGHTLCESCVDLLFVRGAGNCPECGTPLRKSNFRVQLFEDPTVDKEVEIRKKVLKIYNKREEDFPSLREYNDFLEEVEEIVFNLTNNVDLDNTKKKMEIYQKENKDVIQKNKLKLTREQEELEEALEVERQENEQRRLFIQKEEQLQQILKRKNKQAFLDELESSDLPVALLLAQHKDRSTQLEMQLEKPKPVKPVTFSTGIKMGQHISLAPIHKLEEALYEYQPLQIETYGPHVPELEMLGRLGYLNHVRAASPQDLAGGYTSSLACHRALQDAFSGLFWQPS
# method.notes: Enzymatic assay for CDK7 (FRET based LANCE Ultra kinase assay)
# Assay type: biochemical
# conditions.used: CDK7 over CDK5
assay.readout: CDK5/CDK7: Selectivity of CDK7 inhibition over CDK5 inhibition

# cpd.smiles, measured.value
measured = [
    ("CC(C)c1cnn2c(NCc3cccc4cnn(C)c34)nc(N3CCC(N)CC3)nc12", "C (C=less than 20 fold)"),
    ("Cc1ccc(CNc2nc(N3CCC(N)CC3)nc3c(C(C)C)cnn23)cc1-n1cccn1", "C (C=less than 20 fold)"),
]

====

Measured pIC50, listed per entry for reference.
# System: A2780
# method.notes: Cellular A2780 viability assay (CellTiter-Glo, 72 hours)
# Assay type: cell-based
# conditions.used: Homo sapiens
pIC50: −log10 of the molar value.
assay.readout: pIC50

# compound, measured.value
measured = [
    ("CC(C)c1cnn2c(NCc3c(Cl)cccc3-c3cc(C(C)(C)O)nn3C)nc(N3CCC(N)CC3)nc12", "≥ 6.00"),
    ("CC(C)c1cnn2c(NCc3ccccc3-c3ccc4ccccc4n3)nc(NCC3CCOCC3)nc12", "5.00 to 6.00"),
    ("CC(C)c1cnn2c(NCc3c(Cl)cccc3-n3ccc(C(C)(C)O)n3)nc(N3CCC(C)(N)CC3)nc12", "≥ 6.00"),
    ("CC(C)c1cnn2c(NCc3ccccc3-c3ccc4ccccc4n3)nc(NCC[C@H](O)CN)nc12", "5.00 to 6.00"),
    ("CC(C)c1cnn2c(NCc3c(Cl)cccc3-c3ccc4ccccc4n3)nc(N3CCCC[C@H]3CCO)nc12", "< 5.00"),
    ("CC(C)c1cnn2c(NCc3ccccc3-n3cccn3)nc(N3CCc4ncccc4C3)nc12", "5.00 to 6.00"),
    ("CC(C)c1cnn2c(NCc3ccccc3-c3cc4ccccc4[nH]3)nc(N3CCOC(CN)C3)nc12 (racemic)", "≥ 6.00"),
    ("Cc1cccc(-n2ccc(C(C)(C)O)n2)c1CNc1nc(N2CCC(N)CC2)nc2c(C(C)C)cnn12", "≥ 6.00"),
    ("CC(C)c1cnn2c(NCc3ccccc3-n3cccn3)nc(N3CCC(O)CC3)nc12", "5.00 to 6.00"),
    ("CC(C)c1cnn2c(NCc3ccccc3-n3cccn3)nc(N3CCNCC3)nc12", "≥ 6.00"),
    ("CC(C)c1cnn2c(NCc3ccccc3-c3cc4cccc(NC(=O)C5CC5)c4[nH]3)nc(N3CCC(N)CC3)nc12", "≥ 6.00"),
    ("CC(C)c1cnn2c(NCc3ccccc3-c3ccc4ccccc4n3)nc(N3CCNC[C@H]3CO)nc12", "≥ 6.00"),
    ("CC(C)c1cnn2c(NCc3ccccc3-c3ccc4ccccc4n3)nc(N3CCOCC3)nc12", "5.00 to 6.00"),
    ("CC(C)c1cnn2c(NCc3ccccc3-c3ccc4ccccc4n3)nc(NCC[C@@H](O)CN)nc12", "≥ 6.00"),
    ("CC(C)c1cnn2c(NCc3c(Cl)cccc3N3CC[C@@H](C(C)(C)O)C3)nc(N3CCC(N)CC3)nc12", "≥ 6.00"),
]
